Listed below: protein stability index values for each entry.
- Tested on: Saccharomyces cerevisiae
- EXPERIMENTAL_DETAILS: protein stability index of tFT-peptide fusion (C-terminal peptide) (PSI (0-1 scale)); higher = more stable (slower turnover)
- RUN_PARAMETERS: genetic background: das1 deletion; temperature: 30 C

• GGSRGGFRGGRR [GAR1 C-terminal 12 aa] = 0.685
• FEDCCRWNEKQG [HIS6 C-terminal 12 aa] = 0.668
• LSFFGILKYCFL [TSC3 C-terminal 12 aa] = 0.649

Prompt line: I would be grateful if you could share the reported protein stability index for NPFEYENFINIE [YOR263C C-terminal 12 aa] .
Response line: 0.742

Prompt line: I would be grateful if you could share the reported protein stability index for WHKHKTSSDKNI [YDR261C-D C-terminal 12 aa] .
Response line: 0.733

Prompt line: I would be grateful if you could share the reported protein stability index for GFQATVGKRRRM [SUI3 C-terminal 12 aa] .
Response line: 0.699

---

Listed below: protein stability index values for each entry.
- Test system: Saccharomyces cerevisiae
- EXPERIMENTAL_DETAILS: protein stability index of tFT-peptide fusion (C-terminal peptide) (PSI (0-1 scale)); higher = more stable (slower turnover)
- RUN_PARAMETERS: genetic background: wild type; temperature: 30 C
API note: the answer field is a bare number with no unit suffix.

Prompt line: I would be grateful if you could share the reported protein stability index for `FMRASPSACTCL` .
Response line: 0.668

Prompt line: I would be grateful if you could share the reported protein stability index for `CHSLEDRPDDPC` .
Response line: 0.758

Prompt line: I would be grateful if you could share the reported protein stability index for `GVLIFLSFQPIA` .
Response line: 0.431

Prompt line: I would be grateful if you could share the reported protein stability index for `RRGYLVPLPSHA` .
Response line: 0.669

Prompt line: I would be grateful if you could share the reported protein stability index for `ENPVVRSGAVGS` .
Response line: 0.698

Prompt line: I would be grateful if you could share the reported protein stability index for `LGRNTVIGLCLE` .
Response line: 0.642

Prompt line: I would be grateful if you could share the reported protein stability index for `SYKSLGLVEFRV` .
Response line: 0.712

---

- Test system: Saccharomyces cerevisiae
- EXPERIMENTAL_DETAILS: protein stability index of tFT-peptide fusion (C-terminal peptide) (PSI (0-1 scale)); higher = more stable (slower turnover)
- RUN_PARAMETERS: genetic background: cdc34-1; temperature: 37 C
Listed below: protein stability index values for each entry.

• IFSTQMVRFSLL = 0.629
• LSVYGFYKMPAG = 0.501
• CFVQVGGLVKIS = 0.66
• LLRFFPLLLFSF = 0.135
• QPTPQSALAKHQ = 0.655

Continue with the sequence presented below.
Prompt line: I would be grateful if you could share the reported protein stability index for `FFMLWCRVLLRL` .
Response line: 0.144

---

- Test system: Saccharomyces cerevisiae
- EXPERIMENTAL_DETAILS: protein stability index of tFT-peptide fusion (C-terminal peptide) (PSI (0-1 scale)); higher = more stable (slower turnover)
- RUN_PARAMETERS: genetic background: cdc34-1; temperature: 37 C
VALUE_TYPE: protein stability index

- LLMCCLPFLWVF: 0.409
- MLLFVSCCVFLF: 0.134
- VFLFSLLIVFFP: 0.213
- CLHFLTWVRICS: 0.2
- VVDIFLFFLFVC: 0.171
- VTEGMKEVIKQI: 0.647
- YHDKLRAIEKFF: 0.669
- LSLWLFRILSVR: 0.405

Prompt line: Form field - read-out: protein stability index; system: Saccharomyces cerevisiae; submitted item: `VFAWSLYLRWAW`
Response line: 0.281

Prompt line: Form field - read-out: protein stability index; system: Saccharomyces cerevisiae; submitted item: `VRRFNVLLYVRG`
Response line: 0.459

Prompt line: Form field - read-out: protein stability index; system: Saccharomyces cerevisiae; submitted item: `VSLIYKTIKNRV`
Response line: 0.67

---

- Test system: Saccharomyces cerevisiae
- EXPERIMENTAL_DETAILS: protein stability index of tFT-peptide fusion (C-terminal peptide) (PSI (0-1 scale)); higher = more stable (slower turnover)
- RUN_PARAMETERS: genetic background: wild type; temperature: 30 C
Listed below: protein stability index values for each entry.
API note: the answer field is a bare number with no unit suffix.

• PAPTPAPNPNPH = 0.74

Prompt line: I would be grateful if you could share the reported protein stability index for `CFVDHCPIAHIY` .
Response line: 0.608

---

- Tested on: Saccharomyces cerevisiae
- EXPERIMENTAL_DETAILS: protein stability index of tFT-peptide fusion (C-terminal peptide) (PSI (0-1 scale)); higher = more stable (slower turnover)
- RUN_PARAMETERS: genetic background: wild type; temperature: 30 C
Listed below: protein stability index values for each entry.
API note: the answer field is a bare number with no unit suffix.

- LNDLSNVRHSKT [HER1 C-terminal 12 aa]: 0.675
- GAGALAAAAMLL [CWP2 C-terminal 12 aa]: 0.665
- LVKHTYKRSSSS [VBA1 C-terminal 12 aa]: 0.656
- LSDYLSHDFASC [YNL040W C-terminal 12 aa]: 0.694
- DVKPQENGNDSS [REG1 C-terminal 12 aa]: 0.705
- LKNGDKPHLLKF [RPL6B C-terminal 12 aa]: 0.686
- SEVKGYSKLNIV [ASI3 C-terminal 12 aa]: 0.668
- ATFFRYLSNIFT [AGP3 C-terminal 12 aa]: 0.698

Prompt line: I would be grateful if you could share the reported protein stability index for SLDDFGVDVDME [PFA4 C-terminal 12 aa] .
Response line: 0.683

Prompt line: I would be grateful if you could share the reported protein stability index for VTRAAESLGFTV [MIP6 C-terminal 12 aa] .
Response line: 0.696

Prompt line: I would be grateful if you could share the reported protein stability index for LEKHTASDTSCI [YAL066W C-terminal 12 aa] .
Response line: 0.692

Prompt line: I would be grateful if you could share the reported protein stability index for FDDDLTAQLYYP [TDA8 C-terminal 12 aa] .
Response line: 0.744

---

- System: Saccharomyces cerevisiae
- EXPERIMENTAL_DETAILS: protein stability index of tFT-peptide fusion in deletion strain of DAS1 (PSI (0-1 scale)); higher = more stable (slower turnover)
VALUE_TYPE: protein stability index
API note: the answer field is a bare number with no unit suffix.

Solved entries:
* VRGAVGGWRLVH | 0.666
* KSLAASFWRVVG | 0.673
* LVVYLDCVACIN | 0.119

Prompt line: I would be grateful if you could share the reported protein stability index for `RDKRNHLIKLLN` .
Response line: 0.612

Prompt line: I would be grateful if you could share the reported protein stability index for `ARWRVQLWRGAS` .
Response line: 0.689

Prompt line: I would be grateful if you could share the reported protein stability index for `FSMRWKFRYWVN` .
Response line: 0.577

Prompt line: I would be grateful if you could share the reported protein stability index for `FSMRWTFRYWMN` .
Response line: 0.485

Prompt line: I would be grateful if you could share the reported protein stability index for `PDKRNHMIKLLN` .
Response line: 0.625

---

- Test system: Saccharomyces cerevisiae
- EXPERIMENTAL_DETAILS: protein stability index of tFT-peptide fusion (C-terminal peptide) (PSI (0-1 scale)); higher = more stable (slower turnover)
- RUN_PARAMETERS: genetic background: cdc34-1; temperature: 37 C
Listed below: protein stability index values for each entry.

- IRHALHFRVVAV: 0.505
- LFLIYCFAFSIG: 0.258
- LLSPFLLMLLFL: 0.4

Prompt line: I would be grateful if you could share the reported protein stability index for `PRPLLSIYLRHA` .
Response line: 0.597

Prompt line: I would be grateful if you could share the reported protein stability index for `RILKLPGHVNDV` .
Response line: 0.684

---

- System: Saccharomyces cerevisiae
- EXPERIMENTAL_DETAILS: protein stability index of tFT-peptide fusion in wild type (PSI (0-1 scale)); higher = more stable (slower turnover)
- RUN_PARAMETERS: genetic background: wild type
Label criterion met when protein stability index is at or above 0.2; anything below gets criterion not met.

• PDKRWHLIKLLN = criterion not met

Prompt line: State whether the measured protein stability index reaches 0.2, counting equality as reaching it, for `AITLPLCPLLLR`
Response line: criterion not met

Prompt line: State whether the measured protein stability index reaches 0.2, counting equality as reaching it, for `CTSCGIKFRTNN`
Response line: criterion met

---

- System: Saccharomyces cerevisiae
- EXPERIMENTAL_DETAILS: protein stability index of tFT-peptide fusion (C-terminal peptide) (PSI (0-1 scale)); higher = more stable (slower turnover)
- RUN_PARAMETERS: genetic background: cdc34-1; temperature: 37 C
Label y when protein stability index is at or above 0.6; anything below gets n.

• PFFVLFSLAFLF = n
• DFVFFLVSVRFR = n
• AYCGGRNKCTTE = y
• NFFIQFHNLLFP = y
• VRGLGFRWVWGW = y

Prompt line: State whether the measured protein stability index reaches 0.6, counting equality as reaching it, for `YWFWLLIGSFSC`
Response line: n

Prompt line: State whether the measured protein stability index reaches 0.6, counting equality as reaching it, for `RNTLLFKRILHI`
Response line: y

Prompt line: State whether the measured protein stability index reaches 0.6, counting equality as reaching it, for `KDIFQIYTLYVF`
Response line: n

Prompt line: State whether the measured protein stability index reaches 0.6, counting equality as reaching it, for `RPPSLVFLFLLT`
Response line: n

Prompt line: State whether the measured protein stability index reaches 0.6, counting equality as reaching it, for `FFLLLVGFSVLG`
Response line: n

Prompt line: State whether the measured protein stability index reaches 0.6, counting equality as reaching it, for `VSWWRGVYVVLF`
Response line: n
